target: Hexose transporter 1 (Plasmodium falciparum) (UniProt O97467); test: ST_JUDE_LEISH: Cytotoxicity at 2uM final concentration against transgenic Leishmania Mexicana promastigotes LmPfHT that are glucose transport deficient and complemented with the Plasmodium falciparum hexose transporter. Activity is measured by DNA content using SYBR green in vitro; format: functional
PROPERTY MEASURED: inhibition (%)
Numbers only, in %.

Give inhibition for all molecules that follow.
1. COc1cc(F)c2nccc([C@@H](O)CN3CCC(NCc4cc5c(cc4F)OCCO5)CC3)c2c1
2. CS(=O)(=O)c1ccccc1CNC(=O)c1cccc(-c2ccc(-c3nc4cc(C(F)(F)F)ccc4[nH]3)cc2)c1

Result:
1: 0.69; 2: 1.77

State recorded inhibition for all listed molecules.
1. COc1ccc(C(=O)N2CCc3cc4nccc(N5CCN6CCC[C@H]6C5)c4cc32)cc1
2. COc1ccc2nccc(N3CCC(CCNCc4ccc5c(n4)NC(=O)CO5)CC3)c2n1
3. COc1c(C2CCN(CCCCNC(=O)c3ccc(-c4ccc(Cl)cc4)cc3)CC2)ccc2c1C(C)(C)CCC2(C)C
4. O=C(Nc1ccc(Cl)cc1Cl)NC1CCN(CCCCCNC(=O)C2CC2c2ccc(Cl)c(Cl)c2)CC1 (centres undefined)
5. O=C(Cc1cccc(O)c1)NCC(Cc1ccc(O)cc1)c1ccccc1 (centres undefined)
6. Cc1cc(C)c(C)c(OCCCON2C(=N)N=C(N)NC2(C)C)c1C

Result:
[3.64, 0.67, -1.15, 11.3, -0.06, -0.22]

----------
Field: inhibition. Provide a value for each of the molecules that follow.
target: Hexose transporter 1 (Plasmodium falciparum) (UniProt O97467); assay: ST_JUDE_LEISH: Cytotoxicity at 2uM final concentration against transgenic Leishmania Mexicana promastigotes LmPfHT that are glucose transport deficient and complemented with the Plasmodium falciparum hexose transporter. Activity is measured by DNA content using SYBR green in vitro; assay type: functional
Give bare numbers, in %.

Request: inhibition for `COc1ccc(Cl)cc1N1CCN(CCCNC(=O)c2ccc(-c3nc4cc(Cl)c(F)cc4[nH]3)c(F)c2)CC1` ?
Result: 2.24

Lab note: each molecule below needs its inhibition filled in.
1. O=C(NOCc1ccccc1)c1cc(Cl)ccc1O
2. CCOC(=O)c1nc(-c2ccccc2)[nH]c1-n1nc(C)cc1C
3. CN1CCC(C(=O)N(Cc2ccc(-c3ccc(CNCCc4ccccc4)cn3)cc2)Cc2cccc(F)c2)CC1

Result:
3.78
0.92
0.98

----------
target: Solute carrier family 2, facilitated glucose transporter member 1 (Homo sapiens) (UniProt P11166); assay: ST_JUDE_LEISH: Cytotoxicity at 2uM final concentration against transgenic Leishmania Mexicana promastigotes LmGLUT1 that are glucose transport deficient and complemented with the human glucose transporter GLUT1. Activity is measured by DNA content using SYBR green in vitro; assay type: functional
Sequence (P11166 whole entry): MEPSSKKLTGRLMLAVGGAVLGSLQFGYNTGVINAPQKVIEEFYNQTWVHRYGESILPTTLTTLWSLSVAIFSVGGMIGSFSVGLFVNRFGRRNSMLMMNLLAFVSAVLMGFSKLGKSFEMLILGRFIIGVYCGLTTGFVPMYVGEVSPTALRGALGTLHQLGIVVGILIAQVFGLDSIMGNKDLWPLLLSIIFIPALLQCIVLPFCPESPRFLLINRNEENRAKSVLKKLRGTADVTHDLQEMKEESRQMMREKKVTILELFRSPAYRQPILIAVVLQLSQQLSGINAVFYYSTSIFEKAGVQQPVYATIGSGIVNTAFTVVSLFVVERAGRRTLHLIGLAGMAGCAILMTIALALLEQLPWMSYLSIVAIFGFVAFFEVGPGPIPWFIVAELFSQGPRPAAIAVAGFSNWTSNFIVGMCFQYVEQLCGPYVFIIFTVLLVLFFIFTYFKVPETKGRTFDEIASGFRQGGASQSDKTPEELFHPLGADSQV
Please respond with reported inhibition for every item in the list.
Give bare numbers, in %.

Request: Quick check: inhibition of `Cc1cc(NCCc2ccccc2)nc(NC(=N)Nc2ccccc2Cl)n1` ?
Result: 9.69

Request: Query: inhibition; subject: `c1ccc(-c2cc(NCc3cccc4ccccc34)c3[nH]ncc3n2)cc1`
Result: 5.11

Request: Which inhibition reading was recorded for the compound `COc1cc2c(cc1C(F)(F)F)N(C(=O)Nc1cc(F)cc(-c3cncnc3)c1)CC2` ?
Result: 11.6

Request: If you can, please state the reported inhibition value of `Cc1cccc2nc(-c3ccc(-c4ccc(CNCCc5ccncc5)cc4)cc3)[nH]c12` .
Result: 13.2

Next up:
Request: Suppose we examine the compound `Cc1cccc2nc(-c3ccc(-c4ccc(NC(=O)Nc5ccc(Cl)cc5)cc4)cc3)[nH]c12` ; what inhibition value has been reported?
Result: -1.7

----------
molecular target: Glucose transporter (Leishmania mexicana) (UniProt O61059); test: ST_JUDE_LEISH: Cytotoxicity at 2uM final concentration against transgenic Leishmania Mexicana promastigotes LmGT2 that are glucose transport deficient and complemented with the L. Mexicana glucose transporter 2. Activity is measured by DNA content using SYBR green in vitro; format: functional
PROPERTY MEASURED: inhibition (%)
Answers are plain numbers, in %.

// solved cases for inhibition follow
Request: Need inhibition of `CCc1cc2c(=O)c(-c3nc(C)cs3)c([C@H](N)Cc3ccc(O)cc3)oc2cc1O` , thanks.
Result: 7.8

Request: What does the record list as inhibition for `Cc1nc(-c2cccc(NCc3ccccc3)c2)[nH]c1C` ?
Result: 1.13

Request: Would you mind telling me what inhibition value was observed for `CC(=O)c1cccc(NC(=O)N2CCCN(CCCCCNC(=O)/C=C/c3ccc(Cl)c(Cl)c3)CC2)c1` ?
Result: -0.6

Each compound below has a reported value. Please supply its inhibition.
1. Cc1nc2cc(/C=C/C(=O)NC3CCC(CCN4CCc5ccc(C#N)cc5CC4)CC3)ccc2[nH]1 (stereo not given)
2. COc1ccc2nccc([C@@H](O)CN3CCC(NC(=O)/C=C/c4c[nH]c5c(C)cccc45)CC3)c2c1

Result:
[3.19, -5.23]

----------
biological target: Solute carrier family 2, facilitated glucose transporter member 1 (Homo sapiens); test: ST_JUDE_LEISH: Cytotoxicity at 2uM final concentration against transgenic Leishmania Mexicana promastigotes LmGLUT1 that are glucose transport deficient and complemented with the human glucose transporter GLUT1. Activity is measured by DNA content using SYBR green in vitro; assay type: functional
PROPERTY MEASURED: inhibition (%)
One number for each entry, in %.

Request: I am curious: what inhibition value has been reported for `COc1cc(F)c2ncc(Cl)c(CCN3CCC(NCc4ccc5c(n4)NC(=O)CS5)CC3)c2c1` ?
Result: 8.34

Go through the items and report each one's inhibition.
1. O=C(NC1CCN(Cc2ccccc2)CC1)c1ccc(-c2nc3cc(Cl)c(Cl)cc3[nH]2)c(F)c1
2. NC(=O)c1cccc(-n2ccc3cc(CNC4Cc5ccccc5C4)ccc32)c1
3. CS(=O)(=O)NCCCNCc1cccc(-c2csc(-c3nc4ccccc4[nH]3)c2)c1

Result:
1. 10.3
2. 21.9
3. -0.84

Each of the following entries comes with a recorded value; kindly state inhibition for each.
1. NC(=O)COc1c(C2CCN(CCN3CCC(CNC(=O)c4ccc(-c5ccc(C(F)(F)F)cc5)cc4)CC3)CC2)ccc2c1CCCC2
2. COC(=O)c1cc(NC(=O)Nc2ccc(Cn3ncc(N4CCCNCC4)c(Cl)c3=O)cc2)cc(C(=O)OC)c1
3. CN(C)CCC(O)C=C(c1ccc(Cl)cc1)c1ccc(Cl)cc1 (centres undefined)
4. Cc1[nH]cnc1Cc1ccc2c(c1O)c1ccccc1n2C
5. Cn1cncc1C(=O)Nc1cccc(-c2ccc(-c3nc4cc(F)ccc4[nH]3)s2)c1
6. CN(N=Cc1ccccc1)C(=N)NCCCC#Cc1cccc(CN2CCCC2)c1
7. COc1ccc(Oc2ccc(Nc3ccnc4ccc(C(F)(F)F)cc34)cc2)cc1OC
8. O=C(NCC1CCN(CC2CCCCC2)C1)c1cc(-c2cccc(Cl)c2)cs1 (centres undefined)

Result:
1. 4.85
2. 0.7
3. 9.31
4. 2.71
5. 3.18
6. 11.4
7. 7.8
8. 2.86

For every item below, please supply its inhibition.
1. C=CCn1c(C)cc(C(=O)COc2ccc(S(=O)(=O)N3CCOCC3)cc2[N+](=O)[O-])c1C
2. COc1cc(C2=NN(S(=O)(=O)c3c(C)cc(C)cc3C)CCCC2)ccc1Cl
3. O=C(/C=C/c1ccc(Cl)c(Cl)c1)NCCCCCN1CCC(CCNC(=O)/C=C/c2ccccc2F)CC1
4. CN1CCN(CCCN(Cc2csc(-c3ccc(CNCc4ccccc4)cc3)n2)S(=O)(=O)c2ccc(F)cc2)CC1
5. O=[N+]([O-])c1cccc(-c2ccc(C=NNc3cc(N4CCCC4)nc(N4CCCC4)n3)o2)c1
6. O=C(Nc1cccc(-c2ccc(CN3CCC(O)CC3)cc2)c1)c1cccc(Cl)c1
7. c1ccc2c(c1)ncc1c3ccccc3[nH]c21

Result:
1. 2.97
2. 4.03
3. 2.07
4. 14.9
5. 3.39
6. 3.01
7. 7.76

----------
molecular target: Solute carrier family 2, facilitated glucose transporter member 1 (Homo sapiens) (UniProt P11166); assay: ST_JUDE_LEISH: Cytotoxicity at 2uM final concentration against transgenic Leishmania Mexicana promastigotes LmGLUT1 that are glucose transport deficient and complemented with the human glucose transporter GLUT1. Activity is measured by DNA content using SYBR green in vitro; format: functional
PROPERTY MEASURED: inhibition (%)
One number for each entry, in %.

Request: Endpoint output: inhibition of CCCc1cc(OC)c(CC2c3cc(O)c(Cl)cc3CCN2C)cc1OC (stereo unspecified) . Value?
Result: 9.73

Request: inhibition lookup needed for `COC(=O)Nc1cc(C(F)(F)F)ccc1N1CCC(CNS(=O)(=O)c2ccc(OC)cc2)CC1` , thanks.
Result: 7.63

Request: Entry under review: `O=C(/C=C/c1ccc(Cl)c(Cl)c1)NCCCCCCN1CCCN(C(=O)Nc2ccc(C(F)(F)F)cc2)CC1` . Reported inhibition?
Result: 2.54

Request: Field request: inhibition | item: `Cc1cccc2nc(-c3cccc(-c4ccc(C(=O)NCc5nccn5C)cc4)c3)[nH]c12`
Result: 1.94

Request: Field request: inhibition | item: `Clc1ccc(CNc2ccnc(NCCc3coc4ccccc34)n2)c(Cl)c1`
Result: 5.99

Request: Give its inhibition value. Item: `COc1ccc2nccc([C@@H](O)CN3CCC(NCCOc4cccc(F)c4F)CC3)c2c1`
Result: 4.54

Request: Query (molecule): `Cc1cccc2nc(-c3ccc(-c4ccc(CNCCNC(=O)c5ccnn5C)cc4)s3)[nH]c12` ; field requested: inhibition
Result: 9.45

Request: Give its inhibition value. Item: `N#CCCN1CCN(Cc2cccc(-c3ccc(-c4nc5ccccc5[nH]4)s3)c2)CC1`
Result: -1.29

Dear colleague, could you please provide inhibition for the molecules listed below?
1. Cc1ccccc1C1CCN(C2CCC(NC(=O)/C=C/c3cc(F)cc(F)c3)CC2)CC1 (stereo unspecified)
2. Nc1ccc(-c2ccc3ccnc(N)c3c2)cn1
3. Cc1ccccc1Nc1nc(Nc2ccccc2)c2ccccc2n1
4. CCCN(CCC)C(=S)N/N=C1/C(=O)Nc2ccccc21

Result:
1: -1.34; 2: 1.94; 3: 38.8; 4: 0.67
